Origin of the recorded values: paper PMC5540273

- System: RPS6KA5(Kin.Dom.2-C-terminal)
- COND: concentration: 1 μM, replicates: in singlicate; n = 1;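 note: KINOMEscan kinase panel screen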
PROPERTY LABEL: %Inh (%)
Give bare numbers, in %.

*Q* I'd like to know its %Inh. The compound in question is Clc1ccc(-c2nn3ncccc3c2-c2ccnc(Nc3ccc4c(c3)OCCO4)n2)cc1 [GW829116]
*A* 8

*Q* Param item = O=C(Nc1ccccc1F)NC1CCN(c2ccnc(Nc3ccc(F)cc3)n2)CC1 [GSK1379800] ; retrieve measured %Inh.
*A* 26

*Q* Looking for the measured %Inh of CN(C)Cc1ccc(-c2ccc3c(Nc4ccc(Oc5ccccn5)cc4)ccnc3c2)o1 [GW567148] , can you help?
*A* 0

*Q* Recorded %Inh of COc1ccc(CNC(=O)NC2CCN(c3ccnc(Nc4ccc(F)cc4)n3)CC2)cc1 [GSK1379788] , please.
*A* 9

*Q* Requested field: %Inh. Item: `COc1cc2c(cc1OCCN1CCNCC1)ncc1c3ccc(C#N)cc3[nH]c21`
*A* 38

*Q* Request the reported %Inh associated with CN(C)S(=O)(=O)c1cc(-c2ccc3nccc(-c4cccc(S(N)(=O)=O)c4)c3c2)cnc1N [GSK1669921]
*A* 0

*Q* Given CCn1c(-c2nonc2N)nc2c(C#CC(C)(C)O)nc(OC[C@H](N)c3ccccc3)cc21 [GSK943949] , state its recorded %Inh.
*A* 0

*Q* # input compound: Cl.c1ccc(-c2ccc3c(Nc4ccc5[nH]ncc5c4)ccnc3c2)nc1 [GW440137] ; wanted: its %Inh
*A* 34

*Q* Entry O=C(Nc1n[nH]c2cc(-c3ccoc3)ccc12)C1CC1 [SB-738481] has what %Inh?
*A* 0

*Q* Record request: %Inh value, item O=C(Nc1cccc(-c2nn3ccccc3c2-c2ccnc(Nc3cccc(C(F)(F)F)c3)n2)c1)c1c(F)cccc1F [GSK292658]
*A* 0

Batch of 3 compounds: report %Inh for each.
1. COc1cccc(C2=C(Nc3ccc(Cl)c(C(=O)O)c3)C(=O)NC2=O)c1 [SB-390769]
2. O=C(NC1CCN(c2ccnc(Nc3ccc(F)cc3)n2)C1)c1cc2ccccc2s1 (stereo not shown) [GSK1379716]
3. CCc1ccc(-c2ccc3c(c2)-c2c(cnn2C)S(=O)(=O)N3C)cc1

*A*
0
0
0

Hi team, please reply with %Inh for each item in this list.
1. Cc1occc1-c1ncc(OC[C@@H](N)Cc2c[nH]c3ccccc23)cc1-c1ccc2[nH]nc(C)c2c1.O=C(O)C(F)(F)F [GSK682037]
2. Cl.Cl.NCC(NC(=O)c1cc(-c2ccccc2)c(-c2ccnc3[nH]ccc23)s1)c1ccccc1 (stereo not shown) [GSK1321561]
3. CN1CCN(Cc2cccc(-c3ccc4c(Nc5ccc(Oc6ccccc6)cc5)ccnc4c3)c2)CC1 [GW578342]

*A*
[0, 0, 21]

---

Provide the reported %Inh of each item.
- Tested on: DAPK3
- COND: concentration: 1 μM, replicates: in singlicate; n = 1
Answers are plain numbers, in %.

*Q* Report %Inh for Cl.Cl.NCC(NCc1ccc(-c2ccnc3[nH]ccc23)s1)c1ccccc1 (centres unmarked) please.
*A* 71

*Q* %Inh lookup needed for `CN1CCN(Cc2cccc(-c3ccc4c(Nc5ccc(Oc6ccccc6)cc5)ccnc4c3)c2)CC1` , thanks.
*A* 25

*Q* Requested read-out: %Inh. Entry: `COc1ccc(-c2coc3ccc(-c4nnc(SCc5ccc(OC)c(C(F)(F)F)c5)o4)cc23)cc1`
*A* 0

*Q* Data request, read-out %Inh, for `c1ccc(-c2n[nH]cc2Nc2ccnc3ccccc23)nc1`
*A* 66

*Q* Form field: reported %Inh of `O=C(Nc1ccccc1F)NC1CCN(c2ccnc(Nc3ccc(F)cc3)n2)CC1`
*A* 20

*Q* Report %Inh for `C[C@@H]1CC[C@@H](C(=O)Nc2ccccc2)CN1c1cc(-c2ccc3c(N)n[nH]c3c2)nc(N)n1` please.
*A* 20

*Q* Request the reported %Inh associated with `CC(C)(C)c1ccc2nccc(Nc3cccc(O)c3)c2c1`
*A* 0

*Q* Tell me the measured %Inh of `CCn1c(-c2nonc2N)nc2c(C#CC(C)(C)O)nc(OC[C@H](N)c3ccccc3)cc21` , please.
*A* 18

Could I get %Inh for every one of these entries?
1. Cl.Cl.NCC(NC(=O)c1cc(-c2ccccc2)c(-c2ccnc3[nH]ccc23)s1)c1ccccc1 (centres unmarked)
2. O=C(Nc1cccc(-c2nn3ncccc3c2-c2ccnc(Nc3ccccc3)n2)c1)c1c(F)cccc1F

*A*
12
1

Hi team, please reply with %Inh for each item in this list.
1. Cc1ccc(S(=O)(=O)Nc2ccc(Nc3nccc(Nc4cccc5[nH]ncc45)n3)cc2)cc1
2. O=C(O)C(F)(F)F.O=C(O)C(F)(F)F.O=c1[nH]ccc2nc(N[C@@H]3CCCNC3)nc(Nc3ccc(S(=O)(=O)N4CCOCC4)cc3)c12
3. COc1cc(Nc2ncc3c(C)nc(-c4cc5ccccc5[nH]4)n3n2)cc(OC)c1OC

*A*
5
99.3
11

Give %Inh for each listed item.
1. COc1cc(Nc2nccc(N3CCC(NC(=O)c4cc5ccccc5s4)C3)n2)cc(OC)c1OC (centres unmarked)
2. Cc1ccc(F)c(C(=O)Nc2cccc(-c3nn4ccccc4c3-c3ccnc(Nc4cccc(F)c4)n3)c2)c1F
3. Cn1cc(-c2[nH]c3cc(NC(=O)[C@H](N)C4CCCCC4)cc4c3c2C=NNC4=O)cn1
4. CN1CCN(CCCNc2nccc(-c3c(-c4ccc(F)cc4)nn4cc(C(F)(F)F)ccc34)n2)CC1
5. CN(c1ccc(NC(=O)Nc2cc(C(F)(F)F)ccc2F)cc1)c1ccnc(Nc2ccc(S(N)(=O)=O)cc2)n1

*A*
1. 1
2. 14
3. 99.7
4. 100
5. 0

Below are some compounds; for each one, tell me its %Inh.
1. CC(=O)N1CCN(c2ccc(Nc3nccc(-c4sc(C(C)C)nc4-c4cccc(NS(=O)(=O)c5cccc(Cl)c5)c4)n3)cn2)CC1
2. CCn1c(-c2nonc2N)nc2c(C#CC(C)(C)O)ncc(OCCCCN)c21.O=C(O)C(F)(F)F.O=C(O)C(F)(F)F
3. O=C(Nc1cccc(-c2nn3ccccc3c2-c2ccnc(Nc3cccc(F)c3)n2)c1)c1c(F)ccc(F)c1Cl
4. Cc1ccc(C)c(NC(=O)NC2CCN(c3ccnc(Nc4ccc(F)cc4)n3)C2)c1 (centres unmarked)
5. CCc1ccc(-c2ccc3c(c2)-c2c(cnn2C)S(=O)(=O)N3C)cc1

*A*
1. 6
2. 82
3. 0
4. 0
5. 5

---

- Tested on: INSRR
- COND: concentration: 1 μM, replicates: in singlicate; n = 1
Consider the following compounds; for each one, report its %Inh.
Give bare numbers, in %.

Use these answered entries as a reference point.
*Q* Give %Inh (INSRR) of the following compound: CC(=O)N1CCN(c2ccc(Nc3nccc(-c4sc(C(C)C)nc4-c4cccc(NS(=O)(=O)c5cccc(Cl)c5)c4)n3)cn2)CC1 [GSK1660437]
*A* 25

*Q* What is its %Inh for INSRR? Entry: O=C(NC1CCN(c2ccnc(Nc3ccc(F)cc3)n2)C1)c1cc2ccccc2s1 (stereo not shown) [GSK1379716]
*A* 0

*Q* State its %Inh on INSRR: Cc1ccc(S(=O)(=O)Nc2ccc(Nc3nccc(Nc4cccc5[nH]ncc45)n3)cc2)cc1 [GSK581271]
*A* 0

Dear colleague, could you please provide %Inh for the compounds listed below?
1. CC(C)(C)c1ccc2nccc(Nc3cccc(O)c3)c2c1 [GW856795]
2. Cn1cc(-c2ccc3c(c2)CCN3C(=O)Cc2cccc(F)c2)c2c(N)ncnc21 [GSK2603358]
3. COC(=O)Nc1nc2ccc(Oc3ccc(NC(=O)Nc4cc(C(F)(F)F)ccc4F)cc3)cc2n1C.Cl [GW692089]
4. COc1ccc(-c2coc3ccc(-c4nnc(SCc5ccc(OC)c(C(F)(F)F)c5)o4)cc23)cc1

*A*
[0, 0, 0, 0]

---

So I've got a bunch of molecules here, and I need their %Inh values.
- Test system: BMPR1A
- COND: concentration: 1 μM, replicates: in singlicate; n = 1
One number for each entry, in %.

Known %Inh results, listed for orientation:
*Q* Please report the recorded %Inh for O=C(Nc1cccc(-c2nn3ccccc3c2-c2ccnc(Nc3cccc(C(F)(F)F)c3)n2)c1)c1c(F)cccc1F [GSK292658] .
*A* 0

*Q* Reported %Inh for O=C(O)C(F)(F)F.O=C(O)C(F)(F)F.O=c1[nH]ccc2nc(N[C@@H]3CCCNC3)nc(Nc3ccc(S(=O)(=O)N4CCOCC4)cc3)c12 [GSK2177277] : what is it?
*A* 0

Give %Inh for each of the items listed below.
1. CCS(=O)(=O)c1ccc(OC)c(Nc2nccc(-c3c(-c4cccc(NC(=O)c5c(F)cccc5F)c4)nn4ncccc34)n2)c1 [GSK326180]
2. COc1cccc(-c2ccc3c(NC(=O)C4CC4)n[nH]c3n2)c1 [SB-710903]
3. COc1cc(Nc2ncc3c(C)nc(-c4cc5ccccc5[nH]4)n3n2)cc(OC)c1OC [GW869516]

*A*
1: 0; 2: 0; 3: 22
